// data source = patent US20200040103A1

Measured pIC50 accompanies every entry in the list below.
# TESTED ON: recombinant human KLK5 (human) (UniProt Q9Y337)
# Sequence (Q9Y337 67-293): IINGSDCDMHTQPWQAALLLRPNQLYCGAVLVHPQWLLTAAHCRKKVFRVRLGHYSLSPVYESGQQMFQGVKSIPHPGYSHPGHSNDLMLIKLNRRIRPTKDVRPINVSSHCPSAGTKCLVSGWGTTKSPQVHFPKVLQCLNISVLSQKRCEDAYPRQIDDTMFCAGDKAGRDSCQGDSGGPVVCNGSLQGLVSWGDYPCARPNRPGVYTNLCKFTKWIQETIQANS
# EXPERIMENT DESCRIPTION: pro-KLK1 LC/MS assay, 0.5 nM KLK5
pIC50: −log10 of the molar value.

[
  {
    "BINDER": "10C5 (antibody, V domains shown) VH: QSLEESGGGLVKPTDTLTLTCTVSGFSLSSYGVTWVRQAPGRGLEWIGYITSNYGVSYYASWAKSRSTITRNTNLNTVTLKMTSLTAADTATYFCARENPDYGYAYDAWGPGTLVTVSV VL: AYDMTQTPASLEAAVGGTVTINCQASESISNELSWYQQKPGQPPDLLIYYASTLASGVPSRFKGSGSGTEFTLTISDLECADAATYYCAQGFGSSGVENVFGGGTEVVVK",
    "pIC50": 10.10
  },
  {
    "BINDER": "2-3F4 (antibody, V domains shown) VH: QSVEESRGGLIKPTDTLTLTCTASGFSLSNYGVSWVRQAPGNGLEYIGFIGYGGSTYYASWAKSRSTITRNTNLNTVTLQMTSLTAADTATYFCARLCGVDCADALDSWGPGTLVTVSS VL: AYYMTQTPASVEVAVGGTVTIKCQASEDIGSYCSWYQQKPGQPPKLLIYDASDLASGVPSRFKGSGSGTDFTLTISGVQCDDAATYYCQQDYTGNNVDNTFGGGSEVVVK",
    "pIC50": 10.05
  },
  {
    "BINDER": "2B11 (antibody, V domains shown) VH: QSVKESEGGLFKPTDTLTLTCTVSGFSLINYGVSWVRQAPGKGLEWIGYIGSAGSTYYATWAKSRATITRNTNLNTVTLKMTSLTAADTATYFCARAAYSAGSADAEDIWGPGTLVTVSS VL: AYYMTQTPASVEAAVGGTVTIKCQASQSISNYVAWYQQKPGQPPKLLIYRASTLASGVSSRFSGSGSGTEFTLTISDLECADAATYYCHQGYSSSNVDNIFGGGTEVVVK",
    "pIC50": 9.32
  },
  {
    "BINDER": "8F5 (antibody, V domains shown) VH: QSVKESEGGLFKPTDTLTLTCTVSGFSLSSYPISWVRQAPGNGLEWIGYITSEYGVAYYATWAESRSTITRNTNLNTVTLKMTSLTAADTATYFCVRENPTYGYAYDAWGPGTLVTVSS VL: AYDLTQTPASVEAAVGGTVTINCQASESIGNELSWYQQKSGQPPKLLIYQASTLASGVPSRFKGSGSGTDFTLTISDLECADAATYYCAQGFSSSGVENVFGGGTEVVVK",
    "pIC50": 9.80
  },
  {
    "BINDER": "9B6 (antibody, V domains shown) VH: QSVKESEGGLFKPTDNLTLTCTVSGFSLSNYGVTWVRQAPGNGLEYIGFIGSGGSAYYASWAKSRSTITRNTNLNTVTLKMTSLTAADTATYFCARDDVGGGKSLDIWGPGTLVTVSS VL: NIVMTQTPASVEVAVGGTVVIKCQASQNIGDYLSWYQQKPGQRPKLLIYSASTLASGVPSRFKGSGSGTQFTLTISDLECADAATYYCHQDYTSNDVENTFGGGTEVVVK",
    "pIC50": 9.92
  },
  {
    "BINDER": "9F2 (antibody, V domains shown) VH: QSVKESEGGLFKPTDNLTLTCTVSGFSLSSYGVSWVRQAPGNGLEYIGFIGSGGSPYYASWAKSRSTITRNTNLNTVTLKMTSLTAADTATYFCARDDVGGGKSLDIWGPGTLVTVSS VL: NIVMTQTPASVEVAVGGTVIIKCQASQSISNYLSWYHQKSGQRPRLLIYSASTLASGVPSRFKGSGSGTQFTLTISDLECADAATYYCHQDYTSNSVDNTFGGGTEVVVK",
    "pIC50": 9.85
  }
]
